Data provenance is patent US20120045393A1.

Kindly state pEC50 for each of the entries shown.
- ASSAYED SYSTEM: LHRH binding sites on EFO-27 human ovarian cancer cells (human)
- TEST: competition with [125I-Tyr8]BRU-2477 on EFO-27 cells
Non-standard residues stand in square brackets, D forms with d. Primed or numbered codes have the meaning given here. DO3A10CM(3) = metal chelator group attached at the N-terminus (X in table rows); Bpa = N[C@@H](Cc1ccc(C(=O)c2ccccc2)cc1)C(=O)O; d3Pal = N[C@H](Cc1cccnc1)C(=O)O; azaGly = NNC(=O)O; Sar = CNCC(=O)O
Give bare numbers, as −log10 of the molar value.

Here's what some known entries look like.
XRWSHXWXXX (DO3A10CM on N-terminus; AA1 Dnal2; AA6 Darg; AA8 Bpa4; AA9 Pip; AA10 azaGly-NH2) [BRU-2996]
6.46
{DO3A10CM(3)}-[Sar]HWSH[d3Pal]W[Bpa]P[azaGly]-NH2 [BRU-2673]
4.91
XRXSHXWXPX (DO3A10CM on N-terminus; AA1 Dnal2; AA3 Pal3; AA6 Darg; AA8 Bpa4; AA10 azaGly-NH2) [BRU-3109]
6.14
XHWSHXWXPX (DO3A10CM on N-terminus; AA1 Dphe; AA6 Darg; AA8 Bpa4; AA10 azaGly-NH2) [BRU-2894]
5.70

Would you be so kind as to report pEC50 for each listed record?
1. XRWSHXWXPX (DO3A10CM on N-terminus; AA1 Nal2; AA6 Darg; AA8 Bpa4; AA10 azaGly-NH2) [BRU-3051]
2. XRWSRXWXPX (DO3A10CM on N-terminus; AA1 Dnal2; AA6 Darg; AA8 Bpa4; AA10 azaGly-NH2) [BRU-2959]
3. XHWSHXWXPX (AA1 Sar; AA6 Darg; AA8 Bpa4; AA10 azaGly-NH2) [BRU-2441]

[A]
6.21
6.60
6.85

For each of the binders below, state pEC50.
1. XRWXHXWXPX (DO3A10CM on N-terminus; AA1 Dnal2; AA4 Pal4; AA6 Darg; AA8 Bpa4; AA10 azaGly-NH2) [BRU-2957]
2. XRXSHXWXPX (DO3A10CM on N-terminus; AA1 Dnal2; AA3 Nal1; AA6 Darg; AA8 Bpa4; AA10 azaGly-NH2) [BRU-3104]

[A]
[6.08, 6.60]

Give pEC50 for all binders that follow.
1. XHWSHXWXPX (DO3A10CM on N-terminus; AA1 Dtyr; AA6 Darg; AA8 Bpa4; AA10 azaGly-NH2) [BRU-2870]
2. XRWSXXWXPX (DO3A10CM on N-terminus; AA1 Dnal2; AA5 Orn; AA6 Darg; AA8 Bpa4; AA10 azaGly-NH2) [BRU-2961]
3. XRWSHXWXP (DO3A10CM on N-terminus; AA1 Dnal2; AA6 Darg; AA8 Bpa4; AA10 Ap (aminophenyl)) [BRU-3006]

[A]
1. 5.00
2. 6.46
3. 6.38
